System: HCI09 (cells of a triple-negative luminal androgen receptor type breast cancer xenograft)
assay-overview: cell viability (% of vehicle); higher = less cytotoxic;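 also: PDX cells carrying CMV promoter-driven luciferase, viability read as total photon flux per second by IVIS imaging following D-luciferin, vehicle control 0.1% DMSO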
measurement-conditions: 10 µM; 72 h
Recorded cell viability, one value per entry.
metric: cell viability

# molecule, result-number
rows = [
    ("CC(C)NCC(O)c1ccc(O)c(O)c1.Cl (stereo not drawn) [Isoprenaline HCl]", 87.2),
    ("C=C1C(=CC=C2CCCC3(C)C2CCC3C(C)CCCC(C)C)CC(O)CC1O (stereo not drawn)", 29.8),
    ("CN(C)CCCC1(c2ccc(F)cc2)OCc2cc(C#N)ccc21.O=C(O)C(=O)O (stereo not drawn) [Escitalopram Oxalate]", 97.3),
    ("Cn1cnc([N+](=O)[O-])c1Sc1ncnc2nc[nH]c12", 106),
    ("CC=C1NC(=O)C2CSSCCC=CC(CC(=O)NC(C(C)C)C(=O)N2)OC(=O)C(C(C)C)NC1=O (stereo not drawn) [Romidepsin (FK228, depsipeptide)]", 77.5),
    ("CC(c1cc2ccccc2s1)N(O)C(N)=O (stereo not drawn)", 105),
    ("CC[C@@H]1/C=C(\\C)C[C@H](C)C[C@H](OC)[C@H]2O[C@@](O)(C(=O)C(=O)N3CCCC[C@H]3C(=O)O[C@H](/C(C)=C/[C@@H]3CC[C@H](Cl)[C@H](OC)C3)[C@H](C)[C@@H](O)CC1=O)[C@H](C)C[C@@H]2OC", 29.4),
    ("CN1CCC(OC(c2ccccc2)c2ccccc2)CC1.Cl [Diphenylpyraline HCl]", 97.7),
    ("CC1C=CC=CC=CC=CC=CC=CC=CC(OC2OC(C)C(O)C(N)C2O)CC2OC(O)(CC(O)CC(O)C(O)CCC(O)CC(O)CC(=O)OC(C)C(C)C1O)CC(O)C2C(=O)O (stereo not drawn)", 105),
    ("O=C(O)c1ccc2c(c1)nc(Nc1cccc(Cl)c1)c1ccncc12 [CX-4945 (Silmitasertib)]", 28.5),
    ("CCC1=CC2CN(C1)Cc1c([nH]c3ccccc13)C(C(=O)OC)(c1cc3c(cc1OC)N(C)C1C(O)(C(=O)OC)C(OC(C)=O)C4(CC)C=CCN5CCC31C54)C2.O=C(O)C(O)C(O)C(=O)O.O=C(O)C(O)C(O)C(=O)O (stereo not drawn) [Vinorelbine ditartrate]", 65.2),
    ("COC(=O)C12CCC(C)(C)CC1C1C(=O)C=C3C4(C)C=C(C#N)C(=O)C(C)(C)C4CCC3(C)C1(C)CC2 (stereo not drawn)", 23.1),
    ("c1ccc2[nH]c(-c3cscn3)nc2c1", 82.8),
]

* * *

# cell viability per record follows
Test system: HCI11 (cells of an ER-positive luminal breast cancer xenograft)
assay-overview: cell viability (% of vehicle); higher = less cytotoxic
measurement-conditions: 10 µM; 72 h
Counter-ions that a name gives are not always drawn.
metric: cell viability

# compound, result-number
data = [
    ("Cc1cnc(NC(=O)C2=C(O)c3ccccc3S(=O)(=O)N2C)s1", 102),
    ("CC(C)(C)NC(=O)C1CCC2C3CCC4NC(=O)C=CC4(C)C3CCC12C (centres undefined) [Finasteride]", 125),
    ("Cc1cccc(Nc2ccncc2S(=O)(=O)NC(=O)NC(C)C)c1 [Torsemide]", 93.5),
    ("Cc1c(OCC(F)(F)F)ccnc1CS(=O)c1nc2ccccc2[nH]1 (centres undefined) [Lansoprazole]", 128),
    ("COCCCOc1ccnc(C[S+]([O-])c2nc3ccccc3[nH]2)c1C (centres undefined) [Rabeprazole]", 123),
    ("OC(CCCN1CCCCC1)(c1ccccc1)c1ccccc1 [Diphenidol HCl]", 82.5),
    ("Cl.Nc1ccc(N=Nc2ccccc2)c(N)n1 [Phenazopyridine HCl]", 136),
    ("Nc1ccn(C2OC(CO)C(O)C2(F)F)c(=O)n1 (centres undefined)", 112),
    ("Cc1ccsc1C(=CCCN1CCC[C@@H](C(=O)O)C1)c1sccc1C [Tiagabine]", 84.2),
]
